biological target: HCMV pUL89‐C (Human cytomegalovirus, UniProt P16732); experiment: In vitro pUL89‐C endonuclease assay; format: biochemical; conditions: read-out: Nuclease inhibition % at 10 μM
Sequence (P16732 418-674 limits assumed): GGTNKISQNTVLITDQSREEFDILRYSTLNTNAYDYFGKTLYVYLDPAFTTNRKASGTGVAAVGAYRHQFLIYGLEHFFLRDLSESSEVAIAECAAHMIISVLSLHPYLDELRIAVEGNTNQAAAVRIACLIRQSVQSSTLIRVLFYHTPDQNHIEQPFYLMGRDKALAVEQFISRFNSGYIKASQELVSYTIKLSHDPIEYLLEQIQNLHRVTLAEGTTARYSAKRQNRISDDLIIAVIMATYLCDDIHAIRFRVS
This section presents compounds with their documented inhibition at 10 µM values.
Give the quantity in %, number only.

The examples below pair each entry with its known result.
What does the data say about its inhibition at 10 µM? Entry: O=C(NCc1ccc(F)cc1)c1nc(-c2ccccc2F)c2cccnc2c1O [Compound 16d]
17

What does the data say about its inhibition at 10 µM? Entry: COc1cccc(-c2nc(C(=O)NCc3ccc(C)cc3)c(O)c3ncccc23)c1 [Compound 16b]
52

What does the data say about its inhibition at 10 µM? Entry: COCCNC(=O)c1nc(Cl)c2cccnc2c1O [Compound 15f]
51

What does the data say about its inhibition at 10 µM? Entry: O=C(O)c1nc(-c2ccc(C(F)(F)F)cc2)c2cccnc2c1O [Compound 14]
19

What does the data say about its inhibition at 10 µM? Entry: COC(=O)c1nc(Cl)c2cccnc2c1O [Compound 13]
16

What does the data say about its inhibition at 10 µM? Entry: O=C(NCc1ccc(F)cc1)c1nc(-c2cccc(Cl)c2)c2cccnc2c1O [Compound 16e]
8.2

What does the data say about its inhibition at 10 µM? Entry: O=C(NCc1ccc(F)cc1)c1nc(Cl)c2cccnc2c1O [Compound 15a]
49

What does the data say about its inhibition at 10 µM? Entry: Cc1ccc(CNC(=O)c2nc(Cl)c3cccnc3c2O)cc1 [Compound 15d]
66

---
What does the data say about its inhibition at 10 µM? Entry: O=C(NCc1ccc(Cl)c(Cl)c1)c1nc(Cl)c2cccnc2c1O [Compound 15b]
33

What does the data say about its inhibition at 10 µM? Entry: O=C(NCc1ccc(F)c(Cl)c1)c1nc(Cl)c2cccnc2c1O [Compound 15c]
15

What does the data say about its inhibition at 10 µM? Entry: Cc1ccc(CNC(=O)c2nc(-c3ccccc3)c3cccnc3c2O)cc1 [Compound 16a]
71

----------
Target or system HCMV pUL89‐C (Human cytomegalovirus); recorded quantity IC50.
Give the quantity in µM, number only.

Which measured IC50 belongs to COc1cccc(-c2nc(C(=O)NCc3ccc(C)cc3)c(O)c3ncccc23)c1 [Compound 16b] , tested on HCMV pUL89‐C (Human cytomegalovirus)?
24

Which measured IC50 belongs to O=C(NCc1ccc(Cl)c(Cl)c1)c1nc(Cl)c2cccnc2c1O [Compound 15b] , tested on HCMV pUL89‐C (Human cytomegalovirus)?
13

Which measured IC50 belongs to COCCNC(=O)c1nc(Cl)c2cccnc2c1O [Compound 15f] , tested on HCMV pUL89‐C (Human cytomegalovirus)?
5.7

---
Which measured IC50 belongs to O=C(NCc1ccc(F)cc1)c1nc(Cl)c2cccnc2c1O [Compound 15a] , tested on HCMV pUL89‐C (Human cytomegalovirus)?
4.3
